# z-score per record follows
Test: basal S. cerevisiae growth modulation, no modifier, primary screen, OD600, strain BY4716, 24 h, basal condition (AID 1173)
Conditions: OD600, 24 h, higher = more signal, called active from +8 up or from −8 down
Format: numeric value only, no unit, no commentary.

Worked examples, 5 compounds total:
CCCCCN1CC=CC23O[C@@H]4C=CCOC(=O)[C@@H]4[C@H]2C(=O)N(CCCO)[C@@H]3C1=O (some centres not stated) = -0.988
Cc1ccc(S[C@]2(C(=O)NCc3ccccc3)CC(=O)N(Cc3ccccc3Cl)[C@@H]2c2ccc(CO)cc2I)cc1 = -3.45
O=C1OCCC=C[C@H]2OC34C=CCN(Cc5ccccc5)C(=O)[C@H]3N(CCCCCCO)C(=O)[C@@H]4C12 (some centres not stated) = 0.0187
C=CCNC(=O)[C@@H]1[C@H]2C(=O)O[C@H](c3ccccc3)[C@H](c3ccccc3)N2[C@H](c2ccc(O)cc2)[C@@]12C(=O)N(C(=O)OCCOC)c1ccccc12 = 0.57
COc1ccc([Si](C)(C)[C@@H]2[C@@H](CC(=O)N(CCO)Cc3ccccc3)O[C@]3(C(=O)N(C)c4ccccc43)[C@H]2C)cc1 = -0.599

The value of z-score measured for the compound [N-]=[N+]=NCc1ccccc1[C@@H]1OC(c2ccc(OCCCO)cc2)=N[C@]1(Cc1ccccc1)C(=O)N1CCCCC1 turned out to be -1.11

The value of z-score measured for the compound C=CC(COC(C)=O)NS(=O)(=O)c1ccc(Br)cc1 (configuration not stated) turned out to be -2.68

----------
System: Lefty1
Assay: Lefty1 binders on small-molecule microarrays, primary screen, biochemical, small-molecule microarray, 635/667 nm fluorescence (AID 1139)
Conditions: small-molecule microarray binding, fluorescence 635/667; higher = more signal
Outcome: satisfied for composite z-score of at least 0.5; not satisfied for anything lower.

Sample answers from the record:
C=CCNC(=O)[C@@H]1[C@H]2C(=O)O[C@H](c3ccccc3)[C@H](c3ccccc3)N2[C@H](c2ccc(O)cc2)[C@@]12C(=O)N(C(=O)OCCOC)c1ccccc12 = satisfied
[N-]=[N+]=NCc1ccccc1C[C@]1(C(=O)NCCN2CCOCC2)N=C(c2ccc(OCCCO)cc2)O[C@H]1c1ccccc1N=[N+]=[N-] = not satisfied
COC(=O)[C@@]1(Cc2ccc(OC)cc2)[C@H]2c3cc(C(=O)N(C)C)n(Cc4c(OC)[nH]cc(C)c4=O)c3C[C@H]2CN1C(=O)c1ccccc1 = not satisfied
C[C@]1(C(=O)NCc2ccccc2)c2ccccc2C(=O)N(Cc2ccc(OC(F)(F)F)cc2)[C@H]1c1ccc(CO)cc1 = not satisfied
COC(=O)[C@@]1(Cc2ccccc2)[C@H]2c3cc(C(=O)N4CCCC4)n(Cc4ccc(C)o4)c3C[C@H]2CN1C(=O)c1ccccc1 = not satisfied

Prompt: Tell me whether composite z-score is at least 0.5 here: O=C1N(CCS(=O)(=O)c2ccccc2)Cc2ccccc2C[C@]12N=C(c1ccc(OCCCO)cc1)O[C@@H]2c1ccccc1
Completion: satisfied

Prompt: Tell me whether composite z-score is at least 0.5 here: COc1cc(CO)ccc1OC(C)=O
Completion: satisfied

Prompt: Tell me whether composite z-score is at least 0.5 here: COCCOC(=O)N1C(=O)[C@@]2(c3cc(C#CCCO)ccc31)[C@H](c1ccccc1OCCO)N1[C@H](c3ccccc3)[C@H](c3ccccc3)OC(=O)[C@H]1[C@@H]2C(=O)N1CCN(c2ncccn2)CC1
Completion: satisfied

Prompt: Tell me whether composite z-score is at least 0.5 here: CCCN1C(=O)[C@@]2(CCC(=O)OC(C)(C)C)N=C(c3ccc(OCCCO)cc3)O[C@H]2c2ccccc21
Completion: satisfied

Prompt: Tell me whether composite z-score is at least 0.5 here: C=C(C(=O)CC[C@H](OC(C)=O)c1ccc(OCCO)cc1)C(C)C
Completion: satisfied

Prompt: Tell me whether composite z-score is at least 0.5 here: COCC1=C2[C@@H](CCc3ccccc3)OB(O)C[C@@H]2[C@@H]2C(=O)N(Cc3ccccc3)C(=O)[C@@H]2C1
Completion: not satisfied

----------
Test: modulators of HCV replicon luciferase signal, primary screen, HCV replication inhibitor project, Huh7 cells, luciferase reporter (AID 1109);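 further: huh7 hepatoma cells harbouring a luciferase neomycin HCV replicon reporter; luciferase luminescence as measure of HCV replicon replication; test concentration not given here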
Conditions: 48 h, higher = more signal
OBSERVABLE: z-score
Format: numeric value only, no unit, no commentary.

Worked examples, 3 molecules total:
CC(C)C(=C=CC[C@H](O)c1ccccc1OCCO)C[C@H](O)c1ccccn1 = -0.493
COCC1=C2[C@@H](CCc3ccccc3)OB(O)C[C@@H]2[C@@H]2C(=O)N(Cc3ccccc3)C(=O)[C@@H]2C1 = -0.895
O=C(CCN1CCOCC1)c1cccc(O)c1 = -3.35

The value of z-score measured for the molecule COCCCNC(=O)[C@@]1(C)c2ccccc2C(=O)N(Cc2cc(C(F)(F)F)cc(C(F)(F)F)c2)[C@H]1c1ccc(CO)cc1 turned out to be 0.261

The value of z-score measured for the molecule Cc1ccc(S[C@]2(C(=O)NCC(C)C)CC(=O)N(Cc3ccccc3)[C@@H]2c2ccc(CO)cc2I)cc1 turned out to be -2.6

----------
Test: PSAC antagonists in infected red cells, primary screen, cell-based, P. falciparum Indochina, OD700, 2 h (AID 1155);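 further: lysis reports solute entry through the parasite surface anion channel PSAC; channel blockers reduce lysis of infected cells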
Conditions: P. falciparum Indochina infected erythrocytes, osmotic lysis OD700; higher = more signal, called active from +8 up or from −8 down
Outcome: 1 for z-score of at least 1; 0 for anything lower.

Sample answers from the record:
C=C(COC)C(=O)CC[C@H](OC(C)=O)c1cccc(OCCO)c1 = 0
CC(=O)C1=CCC(c2ccccc2)N(S(=O)(=O)c2ccc(C)cc2)C1 (centres undefined) = 1
CC(C)c1ccc(NN2C(C(O)c3c(F)cccc3Cl)C=CC3C(=O)N(c4ccccc4)C(=O)C32)cc1 (centres undefined) = 1
Cc1ccc(S[C@]2(C(=O)NCCN3CCOCC3)CC(=O)N(Cc3cc(C(F)(F)F)cc(C(F)(F)F)c3)[C@@H]2c2ccc(CO)cc2I)cc1 = 0
C=CC[C@@]1(C(=O)O)N=C(c2ccc(OCCCO)cc2)O[C@@H]1c1ccccc1N=[N+]=[N-] = 1
C=CC[C@@]1(C(=O)N2CCOCC2)N=C(c2ccc(OCCCO)cc2)O[C@@H]1c1ccccc1N=[N+]=[N-] = 1

Prompt: Tell me whether z-score is at least 1 here: C=C(CCCC)/C(=C/C[C@H](OC(C)=O)c1ccc(CO)o1)c1cnc2ccccc2c1
Completion: 0

Prompt: Tell me whether z-score is at least 1 here: CC(=O)Nc1cc(Br)ccc1C(=O)O
Completion: 0

Prompt: Tell me whether z-score is at least 1 here: C=CC(COC(C)=O)NS(=O)(=O)c1ccc(Br)cc1 (centres undefined)
Completion: 0

----------
Assay: PSAC antagonists in infected red cells, primary screen, cell-based, P. falciparum Indochina, OD700, 1 h (AID 1154)
Details: P. falciparum Indochina infected RBC osmotic lysis, called active from +8 up or from −8 down
Active and inactive are the calls of the source.
Entry note: the call must match one of T for active, F for inactive

Sample answers from the record:
COCCOC(=O)N1C(=O)[C@@]2(c3cc(C#CCC(C(=O)OC)C(=O)OC)ccc31)[C@H](c1ccccc1OCCO)N1[C@H](c3ccccc3)[C@H](c3ccccc3)OC(=O)[C@H]1[C@@H]2C(=O)N1CCc2cc(OC)c(OC)cc2C1 = F
CC1CC/C=C\[C@H]2OC34C=CCN(Cc5ccccc5)C(=O)[C@H]3N(CCCCCO)C(=O)[C@@H]4C2C(=O)O1 (stereo not given in full) = F
CC(C)C[C@@H]1NC(=O)[C@@H]2C[C@H](C(=O)NCCCCCC[N+](C)(C)C)[C@H](c3ccc(O)cc3)N2C1=O = F
COc1ccc([Si](C)(C)[C@H]2[C@H](CCn3cc(CCO)nn3)O[C@@]3(C(=O)N(Cc4ccc(N5CCOC5=O)cc4)c4ccccc43)[C@@H]2C)cc1 = T
COC(=O)C1=CC(CCCO)=CC(C2CC2)N(Cc2sc3ccccc3c2Cl)C=C1C(=O)OC (stereo not given) = T

Prompt: What outcome does the record of this test show for COc1ccc(C(O)C2C=CC3C(=O)N(C)C(=O)C3N2Nc2ccccc2)cc1OCc1ccccc1 (stereo not given) ?
Completion: F

Prompt: What outcome does the record of this test show for Cc1ccc(S[C@]2(C(=O)NCc3ccccc3)CC(=O)N(Cc3ccccc3)[C@@H]2c2ccc(CO)cc2)cc1 ?
Completion: F

----------
Test system: glycogen synthase kinase-3 (GSK3A per assay name; protocol says GSK3B)
Test: GSK3 binders on small-molecule microarrays, primary screen, biochemical, small-molecule microarray, 635 nm fluorescence, GSK3A (AID 1103); further: the record names both GSK3A and GSK3B
Details: small-molecule microarray binding, fluorescence 635 nm; higher = more signal
OBSERVABLE: composite z-score

// assay glycogen synthase kinase-3 (GSK3A per assay name; protocol says GSK3B), entry N#Cc1ccc(NN2C(C(O)c3ccc([N+](=O)[O-])cc3)C=CC3C(=O)N(c4ccccc4)C(=O)C32)cc1 (stereo not drawn) , composite z-score value = 0.751

// assay glycogen synthase kinase-3 (GSK3A per assay name; protocol says GSK3B), entry O=C1O[C@@H](c2ccccc2)[C@@H](c2ccccc2)N2[C@@H](c3ccccc3OCCO)[C@]3(C(=O)Nc4ccc(C#CC5(O)CCCCCC5)cc43)[C@@H](C(=O)Nc3nc4ccccc4s3)[C@H]12 , composite z-score value = 1.25

// assay glycogen synthase kinase-3 (GSK3A per assay name; protocol says GSK3B), entry [N-]=[N+]=NCc1ccccc1[C@@H]1OC(c2ccc(OCCCO)cc2)=N[C@]1(Cc1ccccc1)C(=O)N1CCCCC1 , composite z-score value = 1.18

// assay glycogen synthase kinase-3 (GSK3A per assay name; protocol says GSK3B), entry CC(C)C[C@@H]1NC(=O)[C@H]2C[C@@H](C(=O)NCCCCCCNC(=O)CS)[C@@H](c3cccc(OCCO)c3)N2C1=O , composite z-score value = 1.27

// assay glycogen synthase kinase-3 (GSK3A per assay name; protocol says GSK3B), entry COc1cccc(C(=O)O[C@H]2CC[C@]3(C)C4=C(CCC3C2(C)C)[C@]2(C)CC[C@H]([C@H](C)CCCC(C)C)[C@@]2(C)CC4)c1 (stereo partly drawn) , composite z-score value = 0.495

// assay glycogen synthase kinase-3 (GSK3A per assay name; protocol says GSK3B), entry CC(C)(C)N1CC=CC23O[C@@H]4C=CCOC(=O)[C@@H]4[C@H]2C(=O)N(CCCCCO)[C@@H]3C1=O (stereo partly drawn) , composite z-score value = -1.54

// assay glycogen synthase kinase-3 (GSK3A per assay name; protocol says GSK3B), entry COC(=O)[C@@]1(Cc2ccccc2)[C@H]2c3cc(C(=O)N4CCCC4)n(C)c3C[C@H]2CN1C(=O)c1ccccc1 , composite z-score value = 0.237

// assay glycogen synthase kinase-3 (GSK3A per assay name; protocol says GSK3B), entry COc1ccc(C(=O)Nc2cccc(CN3C(=O)[C@@]4(O[C@@H](CCn5cc(CCO)nn5)[C@H]([Si](C)(C)c5ccc(OC)cc5)[C@H]4C)c4ccccc43)c2)cc1 , composite z-score value = 1.17

// assay glycogen synthase kinase-3 (GSK3A per assay name; protocol says GSK3B), entry O=C1C[C@]2(c3ccc([N+](=O)[O-])cc3)C(=O)N(CC(F)(F)F)c3cc(CO)ccc3[C@H]2N1CC12CC3CC(CC(C3)C1)C2 , composite z-score value = 0.284

// assay glycogen synthase kinase-3 (GSK3A per assay name; protocol says GSK3B), entry O=C(CS)NCCCCCCNC(=O)[C@@H]1C[C@@H]2C(=O)N3CCC[C@H]3C(=O)N2[C@@H]1c1ccc(O)cc1 , composite z-score value = 0.691

// assay glycogen synthase kinase-3 (GSK3A per assay name; protocol says GSK3B), entry C=CCNC(=O)[C@@H]1[C@H]2C(=O)O[C@H](c3ccccc3)[C@H](c3ccccc3)N2[C@H](c2ccc(O)cc2)[C@@]12C(=O)N(C(=O)OCCOC)c1ccccc12 , composite z-score value = 1.02

// assay glycogen synthase kinase-3 (GSK3A per assay name; protocol says GSK3B), entry CCCCC=C[C@@H](NC(=O)c1ccco1)c1ccccc1 , composite z-score value = -0.877

// assay glycogen synthase kinase-3 (GSK3A per assay name; protocol says GSK3B), entry COC(=O)C(CC#Cc1ccc2c(c1)[C@]1(C(=O)N2)[C@H](C(=O)NC[C@H](O)c2ccccc2)[C@H]2C(=O)O[C@H](c3ccccc3)[C@H](c3ccccc3)N2[C@@H]1c1ccc(OCCO)cc1)C(=O)OC , composite z-score value = 1.3

// assay glycogen synthase kinase-3 (GSK3A per assay name; protocol says GSK3B), entry COC(=O)[C@@]1(Cc2ccc(OC)cc2)[C@H]2c3cc(C(=O)N(C)C)n(Cc4c(OC)[nH]cc(C)c4=O)c3C[C@H]2CN1C(=O)c1ccccc1 , composite z-score value = -0.208

// assay glycogen synthase kinase-3 (GSK3A per assay name; protocol says GSK3B), entry CCCCCN1CC=CC23O[C@@H]4C=CCOC(=O)[C@@H]4[C@H]2C(=O)N(CCCO)[C@@H]3C1=O (stereo partly drawn) , composite z-score value = 0.462

// assay glycogen synthase kinase-3 (GSK3A per assay name; protocol says GSK3B), entry Cc1cc(C)cc(N2C(=O)CS(=O)(=O)C2c2cccc([N+](=O)[O-])c2)c1 (stereo not drawn) , composite z-score value = 0.124

// assay glycogen synthase kinase-3 (GSK3A per assay name; protocol says GSK3B), entry O=C1OCCC=C[C@H]2OC34C=CCN(Cc5ccccc5)C(=O)[C@H]3N(CCCCCO)C(=O)[C@@H]4C12 (stereo partly drawn) , composite z-score value = 1.06

// assay glycogen synthase kinase-3 (GSK3A per assay name; protocol says GSK3B), entry O=C1OCCC=C[C@H]2OC34C=CCN(c5ccc6ccccc6c5)C(=O)[C@H]3N(CCCCCO)C(=O)[C@@H]4C12 (stereo partly drawn) , composite z-score value = -0.224
